Where do these numbers come from? They come from patent US20170174769A1.

Molecular target: T1, full-length human KLB on HEK293/hKLB/SRE-luc cells (human, UniProt Q86Z14 1-1044)
T1 construct: amino acids 1-1044 of NP_783864.1
T1 sequence: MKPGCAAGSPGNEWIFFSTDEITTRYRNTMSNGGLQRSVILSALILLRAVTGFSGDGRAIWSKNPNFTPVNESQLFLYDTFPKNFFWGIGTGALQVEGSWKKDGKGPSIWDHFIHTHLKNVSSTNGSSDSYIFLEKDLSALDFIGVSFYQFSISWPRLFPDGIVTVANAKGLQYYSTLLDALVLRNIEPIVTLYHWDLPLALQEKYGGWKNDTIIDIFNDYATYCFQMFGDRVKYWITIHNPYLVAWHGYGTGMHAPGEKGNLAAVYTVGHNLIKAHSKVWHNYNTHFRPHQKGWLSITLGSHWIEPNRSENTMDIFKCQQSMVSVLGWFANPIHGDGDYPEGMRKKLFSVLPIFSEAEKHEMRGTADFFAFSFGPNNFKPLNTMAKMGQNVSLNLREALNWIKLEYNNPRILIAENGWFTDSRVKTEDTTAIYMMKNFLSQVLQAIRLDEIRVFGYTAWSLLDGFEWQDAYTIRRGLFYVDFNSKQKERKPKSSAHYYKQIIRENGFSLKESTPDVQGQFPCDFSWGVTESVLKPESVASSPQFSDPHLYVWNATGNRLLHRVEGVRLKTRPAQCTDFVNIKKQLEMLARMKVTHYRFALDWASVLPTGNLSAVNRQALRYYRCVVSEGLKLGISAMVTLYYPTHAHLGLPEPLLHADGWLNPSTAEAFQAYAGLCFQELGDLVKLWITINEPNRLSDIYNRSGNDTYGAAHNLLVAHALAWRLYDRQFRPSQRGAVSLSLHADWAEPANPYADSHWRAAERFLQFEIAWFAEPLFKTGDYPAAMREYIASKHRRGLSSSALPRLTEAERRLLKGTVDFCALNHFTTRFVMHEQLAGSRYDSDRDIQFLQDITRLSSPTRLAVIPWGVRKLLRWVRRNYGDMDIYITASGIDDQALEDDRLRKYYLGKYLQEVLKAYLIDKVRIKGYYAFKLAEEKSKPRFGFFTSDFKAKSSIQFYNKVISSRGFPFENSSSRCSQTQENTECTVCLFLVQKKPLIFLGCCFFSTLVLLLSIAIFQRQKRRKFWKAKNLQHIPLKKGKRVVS
Test: FACS on stable HEK293 cells
Please go through the items and note down their binding ratio to unstained cells.
Give a bare numeral; the unit fold is implied.

Q: Suppose we examine the binder H1H8900P (antibody, V domains shown, H1H Fc prefix (human Fc)) VH: QVQLVESGGGVVQPGRSLRLSCVASGFTFSSYGMHWVRQAPGKGLEWVAVISFDGSNKYYADSVKGRFTISRDNSKNTLYLQMNSLRPADTAVYYCAKDRSNYYYFGMDVWGQGTTVTVSS VL: DIVMTQTPLSLPVTPGEPASISCRSSQSLLDSDDGNTYLDWYLQKPGQSPQLLIYTLSYRASGVPDRFSGSGSGTDFTLKISRVEAEDVGVYYCMQRIEFPLTFGGGTKVEIK ; what binding ratio to unstained cells value has been reported?
A: 1

Q: What about this binder? H4H8837P (antibody, V domains shown, human IgG4 Fc (H4H prefix)) VH: QVQLVESGGGVVQPGRSLRLSCAASGFTFNSYAMHWVRQAPGMGLEWVAVISSDGSNKYYADSVRGRFTVSRDNSKNTLYLQMNSLRSEDTAVYYCAKDGRGYSSFSHFGMDVWGQGTTVTVSS VL: DIQMTQSPSTLSASVGDRVTITCRASQSIGSWLAWYQQKPGKAPKLLIYKTSSLESGVPSRFSGSGSGTEFTLTISSLQPDDFASYYCQQYNSYSFGQGTKVEIK
A: 13

Q: What about this binder? H4H8856P (antibody, V domains shown, human IgG4 Fc (H4H prefix)) VH: QVQLQESGPGLVKPSETLSLTCTVSGGSISSYYWSWIRQPPGKGLEWIAYIYYSGITKYNPSLKSRVTISADTSKNQFSLKLSSVTAADTAVYYCARHGIFGVMEYFQRWGQGTLVTVSS VL: DIQMTQSPSSLSASIGDRVTITCQASQDISNFLNWYQQKPGKAPTLLIYDVSNMETGVPSRFSGSGYGTDFTLTISSLKPEDIATYYCQQYDNIPLTFGGGTKVEIK
A: 5

Q: What about this binder? H4H8881P (antibody, V domains shown, human IgG4 Fc (H4H prefix)) VH: QVQLVQSGAEVKKPGASVKVSCKASGYTFTSYVIHWVRQAPGQRLEWMGWSNAANGDTKYSQEFQDRVTFTRDTSASTAYMELSSLRSEDMAVYYCARWNWNYGAFDIWGQGTMVTVSS VL: DIQMTQSPSSLSASVGDRVTITCQASQDINNYLHWYQQKSGKAPNLLIYDASILETGVPSRFSGSGSGTDFTFTISSLQPEDIATYYCQQYDNLPYTFGQGTKLEIK
A: 15

Q: What about this binder? H1H8898P (antibody, V domains shown, H1H Fc prefix (human Fc)) VH: QVQLVESGGGLVKPGGSLRLSCAASGFIFSDYYMSWIRQAPGKGLDWISYISPSGSTIYYADSVKGRFTISRDNAKNSLYLQMNSLRADDTAVYYCARTGIQLWSVYFDYWGQGTLVTVSS VL: EIVMTQSPATLSVSPGERATLSCRASQSVGSNLAWYQQKPGQAPRLLIYGASTRANGIPARFSGSGSGTEFTLTISGLQSEDFAVYYCQQYNNWPTFGQGTKLEIK
A: 1
